method_notes: Plasma pharmacokinetics after topical eye drops of CKLP1, days 1, 4 and 8 (LC-MS/MS)
Type: in vivo, Dutch-belted pigmented rabbits
setup_conditions: female, Dutch-belted pigmented, rabbit, plasma, topical or ocular, plasma, eye drops 10 mM CKLP1 both eyes once daily, Day 4; read-out: Half-life (converted)
value_type: half-life (h)
Unit h implied. Number only.

// sample CC1(C)Oc2ccc(C#N)cc2[C@@H](N2CCCC2=O)[C@@H]1O [Levcromakalim, levcromakalim, reference compound] , its half-life was 25.8

###

method_notes: Plasma pharmacokinetics after single intravenous injection of CKLP1 (LC-MS/MS)
Format: in vivo, Dutch-belted pigmented rabbits
setup_conditions: female, Dutch-belted pigmented, rabbit, intravenous 0.25 mg/kg CKLP1, read-out: Cmax
Experimental: LC-MS/MS analysis of all fluids were performed using a Waters (Milford, MA) Acquity UPLC BEH C18 column (1.7 μm, 2.1 x 50 mm) with an Agilent EC-C18 pre-column (2.7 μm, 2.1 x 5 mm) and a gradient elution program containing ultra-pure water and acetonitrile with 2.5 mM ammonium formate, at a flow rate of 0.2 ml/min. Flavopiridol was used as an internal standard. The column and auto-sampler temperatures were maintained at 40°C and 4°C, respectively. […]
value_type: Cmax (ng/mL)
Unit ng/mL implied. Number only.

// sample CC1(C)Oc2ccc(C#N)cc2[C@@H](N2CCCC2=O)[C@@H]1O [Levcromakalim, levcromakalim, reference compound] , its Cmax was 10.6

###

method_notes: Plasma pharmacokinetics after topical eye drops of CKLP1, days 1, 4 and 8 (LC-MS/MS)
Type: in vivo, Dutch-belted pigmented rabbits
setup_conditions: female, Dutch-belted pigmented, rabbit, plasma, topical or ocular, plasma, eye drops 10 mM CKLP1 both eyes once daily, Day 4
value_type: AUC(0-t) (ng·h/mL)
Unit ng·h/mL implied. Number only.

// sample CC1(C)Oc2ccc(C#N)cc2[C@@H](N2CCCC2=O)[C@@H]1O [Levcromakalim, levcromakalim, reference compound] , its AUC(0-t) was 10.9

###

method_notes: Plasma pharmacokinetics after topical eye drops of CKLP1, days 1, 4 and 8 (LC-MS/MS)
Assay type: in vivo, Dutch-belted pigmented rabbits
setup_conditions: female, Dutch-belted pigmented, rabbit, plasma, topical or ocular, plasma, eye drops 10 mM CKLP1 both eyes once daily, Day 8; read-out: Cmax
value_type: Cmax (ng/mL)
Unit ng/mL implied. Number only.

// sample CC1(C)Oc2ccc(C#N)cc2[C@@H](N2CCCC2=O)[C@@H]1O [Levcromakalim, levcromakalim, reference compound] , its Cmax was 0.6

###

method_notes: Concentration in aqueous and vitreous humor after topical CKLP1 for 1, 4 or 8 days (LC-MS/MS)
Assay type: in vivo, Dutch-belted pigmented rabbits
setup_conditions: female, Dutch-belted pigmented, rabbit, aqueous humor; topical CKLP1 both eyes, days 1, 4 and 8, collected after the 24 h blood sample; read-out: Concentration in aqueous humor
value_type: concentration at 24 h

// sample CC1(C)Oc2ccc(C#N)cc2[C@@H](N2CCCC2=O)[C@@H]1O [Levcromakalim, levcromakalim, reference compound] , its concentration at 24 h was < 0.3 ng/mL

###

method_notes: Plasma pharmacokinetics after single intravenous injection of CKLP1 (LC-MS/MS)
Type: in vivo, Dutch-belted pigmented rabbits
setup_conditions: female, Dutch-belted pigmented, rabbit, intravenous 0.25 mg/kg CKLP1
value_type: AUC(0-t)
In your response, put the unit directly after the numeric value.

// sample CC1(C)Oc2ccc(C#N)cc2[C@@H](N2CCCC2=O)[C@@H]1O [Levcromakalim, levcromakalim, reference compound] , its AUC(0-t) was 120 ng·h/mL

###

method_notes: Plasma pharmacokinetics after topical eye drops of CKLP1, days 1, 4 and 8 (LC-MS/MS)
Assay type: in vivo, Dutch-belted pigmented rabbits
setup_conditions: female, Dutch-belted pigmented, rabbit, plasma, topical or ocular, plasma, eye drops 10 mM CKLP1 both eyes, Day 1; read-out: Tmax (converted)
value_type: Tmax
In your response, put the unit directly after the numeric value.

// sample CC1(C)Oc2ccc(C#N)cc2[C@@H](N2CCCC2=O)[C@@H]1O [Levcromakalim, levcromakalim, reference compound] , its Tmax was 6.67 h

###

method_notes: Plasma pharmacokinetics after topical eye drops of CKLP1, days 1, 4 and 8 (LC-MS/MS)
Assay type: in vivo, Dutch-belted pigmented rabbits
setup_conditions: female, Dutch-belted pigmented, rabbit, plasma, topical or ocular, plasma, eye drops 10 mM CKLP1 both eyes once daily, Day 4; read-out: Tmax (converted)
value_type: Tmax (h)
Unit h implied. Number only.

// sample CC1(C)Oc2ccc(C#N)cc2[C@@H](N2CCCC2=O)[C@@H]1O [Levcromakalim, levcromakalim, reference compound] , its Tmax was 3.33

###

method_notes: Plasma pharmacokinetics after topical eye drops of CKLP1, days 1, 4 and 8 (LC-MS/MS)
Format: in vivo, Dutch-belted pigmented rabbits
setup_conditions: female, Dutch-belted pigmented, rabbit, plasma, topical or ocular, plasma, eye drops 10 mM CKLP1 both eyes, Day 1; read-out: Cmax
Protocol: LC-MS/MS analysis of all fluids were performed using a Waters (Milford, MA) Acquity UPLC BEH C18 column (1.7 μm, 2.1 x 50 mm) with an Agilent EC-C18 pre-column (2.7 μm, 2.1 x 5 mm) and a gradient elution program containing ultra-pure water and acetonitrile with 2.5 mM ammonium formate, at a flow rate of 0.2 ml/min. Flavopiridol was used as an internal standard. The column and auto-sampler temperatures were maintained at 40°C and 4°C, respectively. […]
value_type: Cmax (ng/mL)
Unit ng/mL implied. Number only.

// sample CC1(C)Oc2ccc(C#N)cc2[C@@H](N2CCCC2=O)[C@@H]1O [Levcromakalim, levcromakalim, reference compound] , its Cmax was 0.4

###

method_notes: Plasma pharmacokinetics after topical eye drops of CKLP1, days 1, 4 and 8 (LC-MS/MS)
Type: in vivo, Dutch-belted pigmented rabbits
setup_conditions: female, Dutch-belted pigmented, rabbit, plasma, topical or ocular, plasma, eye drops 10 mM CKLP1 both eyes, Day 1
value_type: AUC(0-t) (ng·h/mL)
Unit ng·h/mL implied. Number only.

// sample CC1(C)Oc2ccc(C#N)cc2[C@@H](N2CCCC2=O)[C@@H]1O [Levcromakalim, levcromakalim, reference compound] , its AUC(0-t) was 6.1

###

method_notes: Plasma pharmacokinetics after topical eye drops of CKLP1, days 1, 4 and 8 (LC-MS/MS)
Format: in vivo, Dutch-belted pigmented rabbits
setup_conditions: female, Dutch-belted pigmented, rabbit, plasma, topical or ocular, plasma, eye drops 10 mM CKLP1 both eyes, Day 1; read-out: Half-life (converted)
Description: LC-MS/MS analysis of all fluids were performed using a Waters (Milford, MA) Acquity UPLC BEH C18 column (1.7 μm, 2.1 x 50 mm) with an Agilent EC-C18 pre-column (2.7 μm, 2.1 x 5 mm) and a gradient elution program containing ultra-pure water and acetonitrile with 2.5 mM ammonium formate, at a flow rate of 0.2 ml/min. Flavopiridol was used as an internal standard. The column and auto-sampler temperatures were maintained at 40°C and 4°C, respectively. […]
value_type: half-life (h)
Unit h implied. Number only.

// sample CC1(C)Oc2ccc(C#N)cc2[C@@H](N2CCCC2=O)[C@@H]1O [Levcromakalim, levcromakalim, reference compound] , its half-life was 13.2

###

method_notes: Plasma pharmacokinetics after topical eye drops of CKLP1, days 1, 4 and 8 (LC-MS/MS)
Format: in vivo, Dutch-belted pigmented rabbits
setup_conditions: female, Dutch-belted pigmented, rabbit, plasma, topical or ocular, plasma, eye drops 10 mM CKLP1 both eyes once daily, Day 8
Procedure: LC-MS/MS analysis of all fluids were performed using a Waters (Milford, MA) Acquity UPLC BEH C18 column (1.7 μm, 2.1 x 50 mm) with an Agilent EC-C18 pre-column (2.7 μm, 2.1 x 5 mm) and a gradient elution program containing ultra-pure water and acetonitrile with 2.5 mM ammonium formate, at a flow rate of 0.2 ml/min. Flavopiridol was used as an internal standard. The column and auto-sampler temperatures were maintained at 40°C and 4°C, respectively. […]
value_type: AUC(0-t) (ng·h/mL)
Unit ng·h/mL implied. Number only.

// sample CC1(C)Oc2ccc(C#N)cc2[C@@H](N2CCCC2=O)[C@@H]1O [Levcromakalim, levcromakalim, reference compound] , its AUC(0-t) was 10.2

###

method_notes: Concentration in aqueous and vitreous humor after topical CKLP1 for 1, 4 or 8 days (LC-MS/MS)
Type: in vivo, Dutch-belted pigmented rabbits
setup_conditions: female, Dutch-belted pigmented, rabbit, vitreous humor; topical CKLP1 both eyes, days 1, 4 and 8, collected after the 24 h blood sample; read-out: Concentration in vitreous humor
value_type: concentration at 24 h

// sample CC1(C)Oc2ccc(C#N)cc2[C@@H](N2CCCC2=O)[C@@H]1O [Levcromakalim, levcromakalim, reference compound] , its concentration at 24 h was < 0.3 ng/mL

###

method_notes: Plasma pharmacokinetics after topical eye drops of CKLP1, days 1, 4 and 8 (LC-MS/MS)
Type: in vivo, Dutch-belted pigmented rabbits
setup_conditions: female, Dutch-belted pigmented, rabbit, plasma, topical or ocular, plasma, eye drops 10 mM CKLP1 both eyes once daily, Day 8; read-out: Half-life (converted)
value_type: half-life (h)
Unit h implied. Number only.

// sample CC1(C)Oc2ccc(C#N)cc2[C@@H](N2CCCC2=O)[C@@H]1O [Levcromakalim, levcromakalim, reference compound] , its half-life was 12.2
